# TEST PROTOCOL: Maximum flux through silicone membranes from mineral oil (Franz diffusion cells)
# PROTOCOL CONDITIONS: log maximum flux through silicone membrane from mineral oil suspension; 32 °C; pH 7.1 phosphate buffer receptor phase; measured directly
OBSERVABLE: log JMPMO (µmol cm^−2 h^−1)

Guide cases for log JMPMO, answers given:
COMPOUND: O=C(O)Cc1ccccc1Nc1c(Cl)cccc1Cl [Diclofenac]
log JMPMO (µmol cm^−2 h^−1): −1.91
--
COMPOUND: CC(=O)Oc1ccccc1C(=O)O [Aspirin]
log JMPMO (µmol cm^−2 h^−1): −1.18
--
COMPOUND: COc1ccc2cc(CCC(C)=O)ccc2c1 [Nabumetone]
log JMPMO (µmol cm^−2 h^−1): −1.53
--
COMPOUND: O=C(O)c1ccccc1Nc1cccc(C(F)(F)F)c1 [Flufenamic Acid]
log JMPMO (µmol cm^−2 h^−1): −0.60
--
COMPOUND: CC(C(=O)O)c1cccc(C(=O)c2ccccc2)c1 (centres unmarked) [Ketoprofen]
log JMPMO (µmol cm^−2 h^−1): −1.18

A. CC(C)Cc1ccc(C(C)C(=O)O)cc1 (centres unmarked) [Ibuprofen]
B. CN1C(C(=O)Nc2ccccn2)=C(O)c2ccccc2S1(=O)=O [Piroxicam]
Ask: Dear colleague, could you let me know whether A or B has the lower recorded log JMPMO? Thanks. Return value: the label identifying the chosen record.
Reply: B

* * *

# TEST PROTOCOL: Calculated log partition coefficients
# Format: physicochemical
# PROTOCOL CONDITIONS: octanol:mineral oil partition coefficient; calculated from log KOCT:1.0 − log KMO:1.0; data from Wenkers and Lippold 1999
OBSERVABLE: log KOCT:MO

COMPOUND: CN1C(C(=O)Nc2ccccn2)=C(O)c2ccccc2S1(=O)=O
MEASURED: 1.49

COMPOUND: O=C(O)c1cc(-c2ccc(F)cc2F)ccc1O
MEASURED: 3.36

COMPOUND: CC(C)Cc1ccc(C(C)C(=O)O)cc1 (stereo not shown)
MEASURED: 1.15

COMPOUND: O=C(O)Cc1ccccc1Nc1c(Cl)cccc1Cl
MEASURED: 2.91

COMPOUND: O=C(O)c1ccccc1Nc1cccc(C(F)(F)F)c1
MEASURED: 1.93

a. CC(=O)Oc1ccccc1C(=O)O
b. COc1ccc2cc(CCC(C)=O)ccc2c1
Ask: Consider entries a and b . Which has the numerically lower log KOCT:MO? Answer with the label corresponding to your selection.
Reply: b
(b: 0.57, a: 3.96)

* * *

# TEST PROTOCOL: Calculated solubilities in octanol, pH 7.4 buffer and acidic water
# Type: physicochemical
# PROTOCOL CONDITIONS: solubility in acidic water (pH 1.0); calculated from log SMO − log KMO:1.0; data from Wenkers and Lippold 1999
OBSERVABLE: log S1.0 (mM)

Worked examples, 4 molecules total:
MOLECULE: CN1C(C(=O)Nc2ccccn2)=C(O)c2ccccc2S1(=O)=O
OBSERVABLE: log S1.0
UNIT SYMBOL: mM
MEASURED: −0.94
//
MOLECULE: O=C(O)Cc1ccccc1Nc1c(Cl)cccc1Cl
OBSERVABLE: log S1.0
UNIT SYMBOL: mM
MEASURED: −2.43
//
MOLECULE: COc1ccc2cc(CCC(C)=O)ccc2c1
OBSERVABLE: log S1.0
UNIT SYMBOL: mM
MEASURED: −1.53
//
MOLECULE: O=C(O)c1cc(-c2ccc(F)cc2F)ccc1O
OBSERVABLE: log S1.0
UNIT SYMBOL: mM
MEASURED: −2.05

I. O=C(O)c1ccccc1Nc1cccc(C(F)(F)F)c1
II. CC(C)Cc1ccc(C(C)C(=O)O)cc1 (stereo not drawn)
Ask: Between the two listed entries I and II , which has its log S1.0 at the higher number? Reply with the label of the item you choose.
Reply: II
